// data source = the supplement of paper PMC9112550

System: Escherichia coli TOP10
assay_text: shrunken log2 fold change of peptide-encoding DNA abundance (4.5 h post-induction vs induction); higher = less antimicrobial activity (less host growth inhibition)
test_conditions: time post-induction: 4.5 h; library: site-saturation at positions 5, 18, 19, 20
result_type: shrunken log2 fold change
One number for each entry.

State recorded shrunken log2 fold change for all listed sequences.
1. RRIRKRPPRLPRPRPRPWPGPRP
2. RRIRARPPRLPRPRPRPRVCPRP
3. RRIRCRPPRLPRPRPRPPTNPRP

A)
0.342
0.0904
0.248

====

Test system: Escherichia coli TOP10
assay_text: shrunken log2 fold change of peptide-encoding DNA abundance (4.5 h post-induction vs induction); higher = less antimicrobial activity (less host growth inhibition)
test_conditions: time post-induction: 4.5 h; library: site-saturation at positions 5, 18, 19, 20
Decide by shrunken log2 fold change: equal to or exceeding 0.05 means Satisfied, less means Not satisfied.

Recorded results for 10 sequences are shown here.
>  <sequence_content>
RRIRDRPPRLPRPRPRPCIHPRP

>  <tested_target>
Escherichia coli TOP10

>  <category>
Not satisfied

$$$$
>  <sequence_content>
RRIRLRPPRLPRPRPRPPTQPRP

>  <tested_target>
Escherichia coli TOP10

>  <category>
Satisfied

$$$$
>  <sequence_content>
RRIRWRPPRLPRPRPRPNCDPRP

>  <tested_target>
Escherichia coli TOP10

>  <category>
Satisfied

$$$$
>  <sequence_content>
RRIRCRPPRLPRPRPRPKHQPRP

>  <tested_target>
Escherichia coli TOP10

>  <category>
Not satisfied

$$$$
>  <sequence_content>
RRIRDRPPRLPRPRPRPRQSPRP

>  <tested_target>
Escherichia coli TOP10

>  <category>
Not satisfied

$$$$
>  <sequence_content>
RRIRSRPPRLPRPRPRPATKPRP

>  <tested_target>
Escherichia coli TOP10

>  <category>
Satisfied

$$$$
>  <sequence_content>
RRIRFRPPRLPRPRPRPRSQPRP

>  <tested_target>
Escherichia coli TOP10

>  <category>
Not satisfied

$$$$
>  <sequence_content>
RRIRERPPRLPRPRPRPCANPRP

>  <tested_target>
Escherichia coli TOP10

>  <category>
Not satisfied

$$$$
>  <sequence_content>
RRIRSRPPRLPRPRPRPLDDPRP

>  <tested_target>
Escherichia coli TOP10

>  <category>
Not satisfied

$$$$
>  <sequence_content>
RRIRCRPPRLPRPRPRPPFEPRP

>  <tested_target>
Escherichia coli TOP10

>  <category>
Satisfied

$$$$

Q) Check the entry RRIRPRPPRLPRPRPRPMNKPRP : does shrunken log2 fold change equal or exceed 0.05?
A) Not satisfied

Q) Evaluate RRIRRRPPRLPRPRPRPEALPRP : shrunken log2 fold change at minimum 0.05?
A) Satisfied

Q) # check: shrunken log2 fold change of RRIRDRPPRLPRPRPRPDYTPRP is greater than or equal to 0.05
A) Not satisfied

Q) Does the reported shrunken log2 fold change for RRIRPRPPRLPRPRPRPFNGPRP fall at or above the 0.05 mark?
A) Not satisfied

Q) Does RRIRTRPPRLPRPRPRPYIKPRP have a reported shrunken log2 fold change of at least 0.05?
A) Not satisfied

Q) Check the entry RRIRYRPPRLPRPRPRPMQGPRP : does shrunken log2 fold change equal or exceed 0.05?
A) Not satisfied

====

Test system: Escherichia coli TOP10
assay_text: shrunken log2 fold change of peptide-encoding DNA abundance (4.5 h post-induction vs induction); higher = less antimicrobial activity (less host growth inhibition)
test_conditions: time post-induction: 4.5 h; library: site-saturation at positions 5, 18, 19, 20
Kindly supply the reported shrunken log2 fold change values for the records listed here.
Numbers only.

>  <sequence_content>
RRIRKRPPRLPRPRPRPKCVPRP

>  <tested_target>
Escherichia coli TOP10

>  <result_type>
shrunken log2 fold change

>  <endpoint_value>
0.52

$$$$

Quick one: give me shrunken log2 fold change for each item below, same order please.
1. RRIRTRPPRLPRPRPRPRLVPRP
2. RRIRERPPRLPRPRPRPNLDPRP
3. RRIRQRPPRLPRPRPRPYFYPRP

A)
1. 0.0412
2. -0.289
3. -0.652

====

Give measured shrunken log2 fold change for each item. Keep answers brief.
Tested on: Escherichia coli TOP10
assay_text: shrunken log2 fold change of peptide-encoding DNA abundance (4.5 h post-induction vs induction); higher = less antimicrobial activity (less host growth inhibition)
test_conditions: time post-induction: 4.5 h; library: site-saturation at positions 5, 18, 19, 20
Numbers only.

>  <sequence_content>
RRIRERPPRLPRPRPRPKQCPRP

>  <tested_target>
Escherichia coli TOP10

>  <result_type>
shrunken log2 fold change

>  <endpoint_value>
-0.354

$$$$
>  <sequence_content>
RRIRQRPPRLPRPRPRPMTQPRP

>  <tested_target>
Escherichia coli TOP10

>  <result_type>
shrunken log2 fold change

>  <endpoint_value>
-0.0451

$$$$

// for each sequence in input: emit shrunken log2 fold change
1. RRIRGRPPRLPRPRPRPFNQPRP
2. RRIRPRPPRLPRPRPRPHCMPRP
3. RRIRHRPPRLPRPRPRPHPLPRP
4. RRIRQRPPRLPRPRPRPYCIPRP
5. RRIRLRPPRLPRPRPRPKYDPRP

A)
1. -0.28
2. -0.195
3. -0.0572
4. -0.0416
5. -0.0843

====

Tested on: Escherichia coli TOP10
assay_text: shrunken log2 fold change of peptide-encoding DNA abundance (4.5 h post-induction vs induction); higher = less antimicrobial activity (less host growth inhibition)
test_conditions: time post-induction: 4.5 h; library: site-saturation at positions 5, 18, 19, 20
result_type: shrunken log2 fold change

Example entries and their recorded answers appear below.
>  <sequence_content>
RRIRCRPPRLPRPRPRPAYRPRP

>  <tested_target>
Escherichia coli TOP10

>  <endpoint_value>
-0.194

$$$$
>  <sequence_content>
RRIRGRPPRLPRPRPRPLDTPRP

>  <tested_target>
Escherichia coli TOP10

>  <endpoint_value>
0.963

$$$$
>  <sequence_content>
RRIRLRPPRLPRPRPRPSPRPRP

>  <tested_target>
Escherichia coli TOP10

>  <endpoint_value>
0.307

$$$$

Go through the items and report each one's shrunken log2 fold change.
1. RRIRSRPPRLPRPRPRPVVHPRP
2. RRIRIRPPRLPRPRPRPQKPPRP
3. RRIRQRPPRLPRPRPRPQWLPRP

A)
-0.126
-0.00327
0.0957

Hi there! I need shrunken log2 fold change for each item below, if you can.
1. RRIRRRPPRLPRPRPRPEMTPRP
2. RRIRFRPPRLPRPRPRPPWPPRP
3. RRIRPRPPRLPRPRPRPEIYPRP
4. RRIRCRPPRLPRPRPRPVSWPRP
5. RRIRMRPPRLPRPRPRPQQQPRP
6. RRIRLRPPRLPRPRPRPILQPRP
7. RRIRYRPPRLPRPRPRPQGYPRP
8. RRIRCRPPRLPRPRPRPMAPPRP

A)
1: 0.638; 2: 0.564; 3: 0.0694; 4: 0.49; 5: 0.246; 6: -0.129; 7: -0.516; 8: 0.219

// batch mode: one shrunken log2 fold change value per listed entry
1. RRIRSRPPRLPRPRPRPRFDPRP
2. RRIRQRPPRLPRPRPRPEQWPRP
3. RRIRGRPPRLPRPRPRPAVHPRP

A)
1. 0.248
2. 0.222
3. 0.536

Dear reader, for each entry below, please note its shrunken log2 fold change.
1. RRIRTRPPRLPRPRPRPVARPRP
2. RRIRPRPPRLPRPRPRPEFHPRP
3. RRIRIRPPRLPRPRPRPSRWPRP
4. RRIRARPPRLPRPRPRPASMPRP
5. RRIRVRPPRLPRPRPRPVFNPRP
6. RRIRSRPPRLPRPRPRPRRWPRP

A)
[2.14, -0.0272, 0.324, 0.301, -0.392, 0.556]

====

Tested on: Escherichia coli TOP10;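 also: peptides expressed intracellularly from a pBAD plasmid library in pooled LB shake-flask culture, induced with 0.3% L-arabinose, DNA abundance read by NGS, three biological replicates, DESeq2 with apeglm shrinkage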
assay_text: shrunken log2 fold change of peptide-encoding DNA abundance (4.5 h post-induction vs induction); higher = less antimicrobial activity (less host growth inhibition)
test_conditions: time post-induction: 4.5 h; library: site-saturation at positions 5, 18, 19, 20
Give shrunken log2 fold change for every item shown.
Numbers only.

Sample records with shrunken log2 fold change:
>  <sequence_content>
RRIRSRPPRLPRPRPRPVCIPRP

>  <result_type>
shrunken log2 fold change

>  <endpoint_value>
-0.414

$$$$
>  <sequence_content>
RRIRMRPPRLPRPRPRPDKHPRP

>  <result_type>
shrunken log2 fold change

>  <endpoint_value>
0.253

$$$$

// input: 4 sequences below; output: shrunken log2 fold change for each
1. RRIRKRPPRLPRPRPRPYYKPRP
2. RRIRVRPPRLPRPRPRPEHYPRP
3. RRIRLRPPRLPRPRPRPHQIPRP
4. RRIRRRPPRLPRPRPRPFMAPRP

A)
1: -0.445; 2: 0.0358; 3: -0.249; 4: 0.113
